Source of measurements: patent US20230416363A1

biological target: T1, hPD-1-Fc (human, UniProt Q15116 25-167); test: blocking ELISA, PD-1 to PD-L2
T1 construct: domain: IgV domain; also called human PD-1-Fc; not shown: human IgG1 Fc
T1 sequence (Q15116 25-167 limits assumed): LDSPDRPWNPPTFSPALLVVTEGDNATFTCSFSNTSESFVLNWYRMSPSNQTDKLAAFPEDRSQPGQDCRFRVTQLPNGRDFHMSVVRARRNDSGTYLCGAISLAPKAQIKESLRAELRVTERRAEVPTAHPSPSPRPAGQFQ
pIC50: −log10 of the molar value.

{"Binder": "31B1 (antibody, V domains shown, also called 780_38; 33B1 and 31B2 (apparent misprints)) VH: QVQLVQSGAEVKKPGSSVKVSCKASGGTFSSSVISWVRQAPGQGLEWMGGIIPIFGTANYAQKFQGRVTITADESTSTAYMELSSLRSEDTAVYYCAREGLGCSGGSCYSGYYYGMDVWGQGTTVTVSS VL: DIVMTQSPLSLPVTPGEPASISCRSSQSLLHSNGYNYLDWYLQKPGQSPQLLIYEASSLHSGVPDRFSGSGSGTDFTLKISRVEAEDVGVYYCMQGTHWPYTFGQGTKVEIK", "pIC50": 8.40}
{"Binder": "33C4 (antibody, V domains shown, also called 780_39) VH: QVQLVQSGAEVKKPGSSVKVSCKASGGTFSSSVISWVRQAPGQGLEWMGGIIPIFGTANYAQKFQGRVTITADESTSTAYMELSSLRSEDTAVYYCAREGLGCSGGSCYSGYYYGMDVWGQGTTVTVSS VL: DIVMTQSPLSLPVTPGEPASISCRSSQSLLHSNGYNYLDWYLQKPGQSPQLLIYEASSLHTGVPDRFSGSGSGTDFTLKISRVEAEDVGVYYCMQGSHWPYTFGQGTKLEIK", "pIC50": 8.48}
{"Binder": "38A6 (antibody, V domains shown, also called 780_46) VH: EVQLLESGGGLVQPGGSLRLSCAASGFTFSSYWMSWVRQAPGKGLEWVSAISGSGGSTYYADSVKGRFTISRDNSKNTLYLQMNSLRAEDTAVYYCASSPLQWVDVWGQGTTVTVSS VL: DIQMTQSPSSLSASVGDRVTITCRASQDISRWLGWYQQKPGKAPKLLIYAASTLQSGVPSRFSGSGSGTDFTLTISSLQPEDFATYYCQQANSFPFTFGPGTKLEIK", "pIC50": 8.62}
{"Binder": "38B2 (antibody, V domains shown, 24H9 derivative, IgG; also called 780_54; hPD1 Ab (38B2)) VH: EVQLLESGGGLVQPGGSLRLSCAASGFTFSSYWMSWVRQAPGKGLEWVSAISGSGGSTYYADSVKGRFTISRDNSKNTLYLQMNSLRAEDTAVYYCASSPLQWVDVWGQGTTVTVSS VL: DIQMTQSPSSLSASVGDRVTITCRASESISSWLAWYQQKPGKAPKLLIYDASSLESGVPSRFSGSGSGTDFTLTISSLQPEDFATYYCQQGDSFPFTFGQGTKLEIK", "pIC50": 8.71}
